- Test system: HEK-293T
- EXPERIMENT_NOTES: Multiplex assay against HEK293T
- Type: toxicity, cell-based
- MEASUREMENT_PARAMETERS: human, 12 h, 10 µM, compound concentration 10 uM, replicate 2
Non-standard residues stand in square brackets, D forms with d. Residues, ends and D or L forms follow the SMILES beside them.
Population Mitochondria Different-Phenotype (%) reference
Respond numerically; units are % and should not be typed.

Sample answers from the record:
CC(C)(O)C(=O)N1CCN(c2ccc(C(F)(F)F)c(C3=C(c4c[nH]c5ccccc45)C(=O)NC3=O)c2)CC1	90
O=c1ccc2ccc(OCCCCN3CCN(c4cccc5sccc45)CC3)cc2[nH]1 [BREXPIPRAZOLE]	100

Write down Population Mitochondria Different-Phenotype (%) measured for item COc1cc(Nc2ncc3c(n2)-c2ccc(Cl)cc2C(c2c(F)cccc2OC)=NC3)ccc1C(=O)O [ALISERTIB]
82

Write down Population Mitochondria Different-Phenotype (%) measured for item "Cc1cc(=O)n(C)c2cc(N3C(=O)CC[C@H](NS(=O)(=O)CC(C)C)[C@H]3c3ccc(Cl)cc3)ccc12"
86

Write down Population Mitochondria Different-Phenotype (%) measured for item "Cc1nn(C)c2nc(NNC(=O)Nc3cc(Cl)nc(Cl)c3)cc(C(C)C)c12"
84

Write down Population Mitochondria Different-Phenotype (%) measured for item CC(C)C[C@@H]1NC(=O)[C@@H](C(C)C)NC(=O)[C@@H]2CCCN2C(=O)[C@@H](CC(=O)O)NC(=O)[C@@H](Cc2c[nH]c3ccccc23)NC1=O [BQ-123] (cyclo(L[dW][dD]P[dV]))
65

Write down Population Mitochondria Different-Phenotype (%) measured for item "COc1cc(C(=O)N2CC[C@@H](O)[C@@H](N)C2)cc2nc(-c3cc4ccccc4n3CC3CC3)n(C)c12.Cl"
88
